Origin of values: patent US20070258982A1

Biological target: T1, human IL-22 (human, UniProt Q9GZX6 34-179)
T1 sequence: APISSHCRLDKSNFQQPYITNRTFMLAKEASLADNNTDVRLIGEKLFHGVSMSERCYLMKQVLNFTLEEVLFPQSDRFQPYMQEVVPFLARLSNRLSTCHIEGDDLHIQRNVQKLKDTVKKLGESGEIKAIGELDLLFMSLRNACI
Assay: cell-based or functional assay
assay-readout: IC50 of IgG (pM) in BaF3-IL-22 proliferation assay

I'd like to know its IC50 of IgG (pM) in BaF3-IL-22 proliferation assay. The binder in question is 375G06 IgG (non-germlined) (antibody, V domains shown, IgG) VH: EVQLVQSGAEVKKPGASVKVSCQASGYTFSDYYIHWVRQTPGQGFEWMGWVNPDTGGTRYAQKFQGWVTMTRDMSNTTAYMELPRLRDDDTAVYYCARDLTGYDYYDRWGQGTLVTVSS VL: QSVLTQPPSMSVAPGKTATITCGGNNFRNKRVHWYQQRPGQAPVLVIYYDSDRPSGIPERFSGSRSGNTATLTISRVEAGDEADFYCQVWDFLADEAMFGGGTKLTVL
100 pM

Next binder up: 166B06 IgG (non-germlined) (antibody, V domains shown) VH: EVQLVQSGAEVKKPGASVKVSCQASGYTFSDYYIHWVRQTPGQGFEWMGWVNPDTGGTRYAQKFQGWVTMTRDMSNTTAYMELPRLRDDDTAVYYCARDLTGFDPFDIWGQGTLVTVSS VL: QSVLTQPPSVSVAPGKTATITCGGNNFRNKRVHWYQQRPGQAPVLVIYYDSDRPSGIPERFSGSRSGNTATLTISRVEAGDEADFYCQVWDLFNDNGVFGGGTKLTVLG
71 pM

Next binder up: 354A08 IgG (germlined) (antibody, V domains shown, isotype of this preparation not restated) VH: QVQLVQSGAEVKKPGASVKVSCKASGYTFTDYYMHWVRQAPGQGLEWVGWINPYTGGAFYAQKFRGRVTMTRDTSISTAYMELSRLRSDDTAVYYCAREPERFGDSTGQVWGRGTLVTVSS VL: QAVLTQPPSVSGAPGQRVTISCTGSSSNIGAGYGVHWYQQLPGTAPKLLIYGNSNRPSGVPDRFSGSKSGTSASLAITGLQAEDEADYYCYHWDKEQSGYVFGGGTQLTVLG
79 pM

Next binder up: 062A09 IgG (non-germlined) (antibody, V domains shown) VH: QVQLVESGAEVKKPGASVKVSCKASGYTFTSYGISWVRQAPGQGLEWMGWVSAYTGNTNYAQKFQGRVTMTTDTSTSTAYMELRGLRSDDTAVYYCARDRGYYDAFDIWGQGTLVTVSS VL: DIQMTQSPSTLSASIGDRVTITCRASEGIYHWLAWYQQKPGKAPKLLIYKASSLASGAPSRFSGSGFGTDFTLTISSLQPDDFATYYCQQMGEYNATIGGGTKLEIKR
83 pM
